Each entry below carries its reported pIC50.
Target: KRAS G13D (Homo sapiens (Human), UniProt P01116+P62937, G13D)
Sequence (P01116-2 other isoform, or with tags, fused parts or gaps G13D): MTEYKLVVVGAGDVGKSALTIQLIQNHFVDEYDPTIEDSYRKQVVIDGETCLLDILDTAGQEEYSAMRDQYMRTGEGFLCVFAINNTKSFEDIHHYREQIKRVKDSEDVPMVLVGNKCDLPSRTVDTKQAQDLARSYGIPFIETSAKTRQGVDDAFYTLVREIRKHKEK
Sequence (P62937 whole entry): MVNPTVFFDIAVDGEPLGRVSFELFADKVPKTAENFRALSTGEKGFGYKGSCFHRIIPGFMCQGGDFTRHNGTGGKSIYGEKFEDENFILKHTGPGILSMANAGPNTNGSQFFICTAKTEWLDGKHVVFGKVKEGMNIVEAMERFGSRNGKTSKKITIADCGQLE
Experiment: Ras-Raf (BRAF RBD) disruption / FRET / MOA assay, KRAS G13D
Type: biochemical
Details: read-out: IC50* KRAS G13D FRET data
pIC50: −log10 of the molar value.

compound="C=CC(=O)N1CC(OCC(C(=O)N[C@H]2Cc3nc(cs3)-c3ccc4c(c3)c(c(-c3cccnc3[C@H](C)OC)n4CC)CC(C)(C)COC(=O)[C@@H]3CCCN(N3)C2=O)C(C)C)C1 (mixture of isomers)" result="5.00 to 6.00"
compound="C=CC(=O)N1CCC[C@]12CCN(C(=O)N(C)[C@H](C(=O)N[C@H]1Cc3nc(cs3)-c3ccc4c(c3)c(c(-c3cccnc3[C@H](C)OC)n4CC)CC(C)(C)COC(=O)[C@@H]3CCCN(N3)C1=O)C(C)C)C2 (atropisomer, axis not shown)" result="5.00 to 6.00"

Query: GET /values?readout=pIC50&item= C=CC(=O)N1CC[C@H](C(=O)N(C)[C@H](C(=O)NC2C[C@H]3CN(CCCO3)c3ccc4c(c3)c(c(-c3cccnc3[C@H](C)OC)n4CC)CC(C)(C)COC(=O)[C@@H]3CCCN(N3)C2=O)C(C)C)C1 (single isomer, unassigned)
Result: < 5.00

Query: Would you kindly share the measured pIC50 for C=CC(=O)N1CC[C@H](C(=O)Nc2ccccc2C(=O)N[C@H]2Cc3cc(O)cc(c3)-c3ccc4c(c3)c(c(-c3cnccc3COC)n4CC)CC(C)(C)COC(=O)[C@@H]3CCCN(N3)C2=O)C1 ?
Result: < 5.00

Query: Returns the measured pIC50 for the input compound. Input: C=CC(=O)N1CCOC2(C1)CN(C(=O)N(C)[C@H](C(=O)N[C@H]1Cc3nc(cs3)-c3ccc4c(c3)c(c(-c3cccnc3[C@H](C)OC)n4CC(F)(F)F)CC(C)(C)COC(=O)[C@@H]3CCCN(N3)C1=O)C(C)C)C2 (atropisomer, axis not shown)
Result: 5.00 to 6.00

Query: Which pIC50 value belongs to C=CC(=O)N1CC[C@H](C(=O)N(C)[C@H](C(=O)N[C@H]2CC3=NN=C(S3)c3ccc4c(c3)c(c(-c3cccnc3[C@H](C)OC)n4CC)CC(C)(C)COC(=O)[C@@H]3CCCN(N3)C2=O)C(C)C)C1 (atropisomer, axis not shown) ?
Result: < 5.00

Query: What does the record list as pIC50 for C=CC(=O)N1CC[C@H](C(=O)N(C)[C@H](C(=O)N[C@H]2CC3=NN=C(S3)c3ccc4c(c3)c(c(-c3cccnc3COC)n4CC)CC(C)(C)COC(=O)[C@@H]3CCCN(N3)C2=O)C(C)C)C1 ?
Result: < 5.00

Query: Would you mind telling me what pIC50 value was observed for CCn1c(-c2cccnc2[C@H](C)OC)c2c3cc(ccc31)C1=CCCN(C1)C[C@H](NC(=O)[C@H](C(C)C)N(C)C(=O)C1(F)CCN(C(=O)C#CC(C)(C)N(C)C)CC1)C(=O)N1CCC[C@H](N1)C(=O)OCC(C)(C)C2 (atropisomer, axis not shown) ?
Result: 6.00 to 7.00

---

Measured pIC50, listed per entry for reference.
Target: KRAS Q61H (Homo sapiens (Human), UniProt P01116+P62937, Q61H)
Sequence (P01116-2 other isoform, or with tags, fused parts or gaps Q61H, one chain of several): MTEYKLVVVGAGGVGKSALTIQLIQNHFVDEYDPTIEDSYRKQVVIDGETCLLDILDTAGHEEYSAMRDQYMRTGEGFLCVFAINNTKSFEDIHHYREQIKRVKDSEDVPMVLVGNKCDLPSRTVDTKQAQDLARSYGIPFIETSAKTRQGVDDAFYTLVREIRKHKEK
Assay: Ras-Raf (BRAF RBD) disruption / FRET / MOA assay, KRAS Q61H
Type: biochemical
Details: Ras-Raf disruption/FRET/MOA assay; class symbols; read-out: KRAS Q61H FRET data IC50
pIC50: −log10 of the molar value.

molecule=C=CC(=O)N1CC[C@H](C(=O)N(C)[C@H](C(=O)N[C@H]2Cc3cc(O)cc(c3)-c3ccc4c(c3)c(c(-c3cccnc3N3CC(OC)C3)n4CC)CC(C)(C)COC(=O)[C@@H]3CCCN(N3)C2=O)C(C)C)C1 result="5.00 to 6.00"

Query: Sample C=CC(=O)NCCN1CCN(C(=O)N(C)[C@H](C(=O)N[C@H]2Cc3nc(cs3)-c3ccc4c(c3)c(c(-c3cccnc3[C@H](C)OC)n4CC)CC(C)(C)COC(=O)[C@@H]3CCCN(N3)C2=O)C(C)C)CC1 (atropisomer, axis not shown) — what was its pIC50?
Result: 7.00 to 8.00
